read-out: Interleukin-1 alpha (IL1a), IL1A (gene 3552); test: BSK_BE3C_IL1a: BioMAP Diversity Plus: BE3C Assay for Interleukin-1 alpha (IL1a) Biomarker Activity (AID 2283016); conditions: primary human bronchial epithelial cells; actives raise or lower the signal
Activity calls are given as the source filed them. How the source made its calls: active means hit-call score of the fitted dose curve at least 0.9, where 1 is the maximum; inactive means score below 0.9.
Possible outcomes: active, inactive

> print(dat)
                                    compound  answer.label
 1                          COC(=O)Cc1ccccc1      inactive
 2               CC(C)(C)CC(C)(C)c1ccc(O)cc1        active
 3                         O=C(O)C(Cl)(Cl)Cl      inactive
 4  CC(=O)C(Cl)C(=O)N(C)C (configuration not stated)        active
 5  CC(C)CCCCCCOC(=O)c1ccccc1C(=O)OCCCCCCC(C)C      inactive
 6            CCCCCCCCC(=O)NCc1ccc(O)c(OC)c1      inactive
 7  O=C(O)C(F)(F)C(F)(F)C(F)(F)C(F)(F)C(F)(F)C(F)(F)F      inactive
 8  CCC(=O)C(CC(C)N(C)C)(c1ccccc1)c1ccccc1 (configuration not stated)      inactive
 9  C=C(C)C(=O)[O][Sn]([CH2]CCC)([CH2]CCC)[CH2]CCC        active
10  COC(=O)c1sccc1S(=O)(=O)NC(=O)Nc1nc(C)nc(OC)n1      inactive
11         O=S(=O)(c1ccc(Cl)cc1)c1ccc(Cl)cc1      inactive
12  CCN1CCC2(CC1)COc1cc3c(cc12)N(C(=O)c1ccc(-c2ccc(-c4nnc(C)o4)cc2C)cc1)CC3        active

---

Read-out: E-selectin (Homo sapiens)
Test: BSK_SAg_Eselectin: BioMAP Diversity Plus: SAg Assay for Eselectin Biomarker Activity (AID 2283091)
Conditions: primary human HUVEC with PBMC; actives raise or lower the signal
Method: BSK_SAg is a cell-based, multiplexed-readout assay that uses umbilical vein endothelium and peripheral blood mononuclear cells, a human vascular primary cell co-culture, with measurements taken at 24 hours after chemical dosing in a 96-well plate.BSK_SAg_Eselectin is an assay component measured in the BSK_SAg assay. It measures E-selectin antibody related to regulation of gene expression using ELISA technology.Data from the assay component BSK_SAg_Eselectin was analyzed into 1 assay endpoint. […]
Active and inactive are the calls of the source. How the source made its calls: active means hit-call score of the fitted dose curve at least 0.9, where 1 is the maximum; inactive means score below 0.9.
Labels: t for active, f for inactive

> print(dat)
                                    smi  answer.label
1                               NC(=O)O             f
2                             OCc1ccco1             f
3                           ClCC(Cl)CCl             f
4            CCNc1nc(NC(C)(C)C)nc(SC)n1             f
5     O=S(=O)(c1ccc(Cl)cc1)c1ccc(Cl)cc1             f
6                  CC(C)(C)c1cc(O)ccc1O             t
7                       NC(=S)Nc1ccccc1             f
8  O=C(OC1CCCCC1)c1ccccc1C(=O)OC1CCCCC1             t
